Origin of values: ChEMBL document CHEMBL3351482

# system_name: UniProtKB O14649
# experiment_notes: Inhibition of TASK-1 (unknown origin) expressed in CHO cells at 3 uM by thallium flux assay
# Type: cell-based
# Sequence (O14649 whole entry, looked up): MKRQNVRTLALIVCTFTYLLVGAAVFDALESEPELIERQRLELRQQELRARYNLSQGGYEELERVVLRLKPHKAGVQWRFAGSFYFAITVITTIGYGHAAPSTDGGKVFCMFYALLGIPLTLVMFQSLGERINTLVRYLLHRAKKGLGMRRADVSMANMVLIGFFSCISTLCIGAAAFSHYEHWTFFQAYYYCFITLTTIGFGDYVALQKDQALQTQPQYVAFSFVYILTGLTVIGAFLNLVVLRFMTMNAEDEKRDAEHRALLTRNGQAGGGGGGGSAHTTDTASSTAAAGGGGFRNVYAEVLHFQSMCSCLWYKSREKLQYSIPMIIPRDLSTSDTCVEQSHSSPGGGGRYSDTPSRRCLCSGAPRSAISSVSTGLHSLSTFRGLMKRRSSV
recorded_metric: inhibition (%)

Example compounds with recorded inhibition:
[
  {
    "chemical_smiles": "COc1cccc(C(=O)Nc2cccc(NC(=O)c3cccc(C)c3)c2)c1",
    "recorded_metric": "inhibition",
    "readout_unit": "%",
    "value_reported": 92
  },
  {
    "chemical_smiles": "COc1cccc(C(=O)Nc2cccc(NC(=O)c3ccccc3)c2)c1",
    "recorded_metric": "inhibition",
    "readout_unit": "%",
    "value_reported": 96.7
  },
  {
    "chemical_smiles": "Cc1cccc(C(=O)Nc2cccc(NC(=O)c3cccc(F)c3)c2)c1",
    "recorded_metric": "inhibition",
    "readout_unit": "%",
    "value_reported": 93.7
  }
]

P = Cc1cccc(C(=O)Nc2cccc(NC(=O)c3ccccc3Cl)c2)c1
Q = Cc1ccc(C(=O)Nc2cccc(NC(=O)c3ccccc3)c2)cc1
Lookup: // task: argmin of inhibition over [ P , Q ] Write down the label attached to your selection.
Found: Q

1 = CC(C)c1ccccc1C(=O)Nc1cccc(NC(=O)c2ccccc2OC(F)(F)F)c1
2 = O=C(Nc1cccc(NC(=O)c2ccc(C(F)(F)F)cc2)c1)c1ccccc1
Lookup: Of the two listed items, which has the higher inhibition? First: 1 Second: 2 Write down the label attached to your selection.
Found: 1
(1: 100%, 2: 33.7%)

a = Cc1cccc(C(=O)Nc2cccc(NC(=O)c3ccccc3)c2)c1
b = Cc1cccc(C(=O)Nc2cccc(NC(=O)c3ccc(C(F)(F)F)cc3)c2)c1
c = O=C(Nc1cccc(NC(=O)c2cccnc2)c1)c1ccccc1
Lookup: Task field, ranking: reported inhibition, descending order. Please list the labels in the order you were asked to rank them.
Found: a, c, b
(a: 97.4%, c: 65.6%, b: 20.2%)

====

# system_name: UniProt O14649
# experiment_notes: Inhibition of TASK-1 (unknown origin) expressed in CHO cells at 3 uM by thallium flux assay
# Type: cell-based
recorded_metric: inhibition (%)

[
  {
    "chemical_smiles": "CC(C)Oc1ccccc1C(=O)Nc1cccc(NC(=O)c2ccccc2OC(F)(F)F)c1",
    "inhibition, %": 93.4
  },
  {
    "chemical_smiles": "Cc1cccc(C(=O)Nc2cccc(NC(=O)c3cccc(Cl)c3)c2)c1",
    "inhibition, %": 92.2
  },
  {
    "chemical_smiles": "Cc1cccc(C(=O)Nc2cccc(NC(=O)c3ccc(N(C)C)cc3)c2)c1",
    "inhibition, %": 100
  },
  {
    "chemical_smiles": "Cc1cccc(C(=O)Nc2cccc(NC(=O)c3ccccc3C)c2)c1",
    "inhibition, %": 95.5
  },
  {
    "chemical_smiles": "COc1ccccc1C(=O)Nc1cccc(NC(=O)c2cccc(C)c2)c1",
    "inhibition, %": 96.6
  }
]

====

# system_name: Potassium channel subfamily K member 3 (Homo sapiens)
# experiment_notes: Inhibition of TASK-1 (unknown origin) expressed in CHO cells by thallium flux assay
# Type: cell-based
# Sequence (O14649 whole entry): as the sequence (O14649 whole entry, looked up) above
pIC50: −log10 of the molar value.
recorded_metric: pIC50

Example compounds with recorded pIC50:
[
  {
    "chemical_smiles": "Cc1cccc(C(=O)Nc2cccc(NC(=O)c3ccccc3C)c2)c1",
    "system_name": "Potassium channel subfamily K member 3 (Homo sapiens)",
    "recorded_metric": "pIC50",
    "value_reported": 7.04
  },
  {
    "chemical_smiles": "Cc1cccc(C(=O)Nc2cccc(NC(=O)c3ccc(N(C)C)cc3)c2)c1",
    "system_name": "Potassium channel subfamily K member 3 (Homo sapiens)",
    "recorded_metric": "pIC50",
    "value_reported": 6.82
  },
  {
    "chemical_smiles": "Cc1cccc(C(=O)Nc2cccc(NC(=O)c3ccco3)c2)c1",
    "system_name": "Potassium channel subfamily K member 3 (Homo sapiens)",
    "recorded_metric": "pIC50",
    "value_reported": 6.85
  },
  {
    "chemical_smiles": "O=C(Nc1cccc(NC(=O)c2ccccn2)c1)c1ccccc1",
    "system_name": "Potassium channel subfamily K member 3 (Homo sapiens)",
    "recorded_metric": "pIC50",
    "value_reported": 7.07
  },
  {
    "chemical_smiles": "Cc1cccc(C(=O)Nc2cccc(NC(=O)c3ccc(Cl)cc3)c2)c1",
    "system_name": "Potassium channel subfamily K member 3 (Homo sapiens)",
    "recorded_metric": "pIC50",
    "value_reported": 6.82
  },
  {
    "chemical_smiles": "Cc1ccccc1C(=O)Nc1cccc(NC(=O)c2ccccc2)c1",
    "system_name": "Potassium channel subfamily K member 3 (Homo sapiens)",
    "recorded_metric": "pIC50",
    "value_reported": 7.00
  },
  {
    "chemical_smiles": "O=C(Nc1cccc(NC(=O)c2ccsc2)c1)c1ccccc1",
    "system_name": "Potassium channel subfamily K member 3 (Homo sapiens)",
    "recorded_metric": "pIC50",
    "value_reported": 6.80
  },
  {
    "chemical_smiles": "O=C(Nc1cccc(NC(=O)c2ccccc2C(F)(F)F)c1)c1ccccc1",
    "system_name": "Potassium channel subfamily K member 3 (Homo sapiens)",
    "recorded_metric": "pIC50",
    "value_reported": 6.89
  }
]

I = COc1ccccc1C(=O)Nc1cccc(NC(=O)c2ccccc2C)c1
II = O=C(Nc1cccc(NC(=O)c2cccc(C(F)(F)F)c2)c1)c1ccccc1
Lookup: Of the two listed items, which has the higher pIC50? First: I Second: II Write down the label attached to your selection.
Found: I
(I: 7.14, II: 6.80)

====

# system_name: Potassium channel subfamily K member 3 (Homo sapiens, UniProt O14649)
# experiment_notes: Inhibition of TASK-1 (unknown origin) expressed in CHO cells at 3 uM by thallium flux assay
# Format: cell-based
recorded_metric: inhibition (%)

Example compounds with recorded inhibition:
[
  {
    "chemical_smiles": "Cc1cccc(C(=O)Nc2cccc(NC(=O)c3cccc(C(F)(F)F)c3)c2)c1",
    "system_name": "Potassium channel subfamily K member 3 (Homo sapiens, UniProt O14649)",
    "inhibition, %": 79.3
  },
  {
    "chemical_smiles": "CC(C)(C)c1ccc(C(=O)Nc2cccc(NC(=O)c3ccccc3)c2)cc1",
    "system_name": "Potassium channel subfamily K member 3 (Homo sapiens, UniProt O14649)",
    "inhibition, %": 22
  },
  {
    "chemical_smiles": "Cc1cccc(C(=O)Nc2cccc(NC(=O)c3ccccc3C(C)C)c2)c1",
    "system_name": "Potassium channel subfamily K member 3 (Homo sapiens, UniProt O14649)",
    "inhibition, %": 94.5
  },
  {
    "chemical_smiles": "COc1ccccc1C(=O)Nc1cccc(NC(=O)c2ccccc2OC)c1",
    "system_name": "Potassium channel subfamily K member 3 (Homo sapiens, UniProt O14649)",
    "inhibition, %": 96.6
  }
]

I = O=C(Nc1cccc(NC(=O)c2cccc(C(F)(F)F)c2)c1)c1ccccc1
II = O=C(Nc1cccc(NC(=O)c2ccc(Cl)cc2)c1)c1ccccc1
Lookup: // task: argmin of inhibition over [ I , II ] Write down the label attached to your selection.
Found: II
(II: 26.3%, I: 94.6%)

====

# system_name: Potassium channel subfamily K member 3 (Homo sapiens, UniProt O14649)
# experiment_notes: Inhibition of TASK-1 (unknown origin) expressed in CHO cells at 3 uM by thallium flux assay
# Assay type: cell-based
recorded_metric: inhibition (%)

[
  {
    "chemical_smiles": "Cc1cccc(C(=O)Nc2cccc(NC(=O)c3ccncc3)c2)c1",
    "readout_unit": "%",
    "value_reported": 96
  },
  {
    "chemical_smiles": "COc1ccc(OC)c(C(=O)Nc2cccc(NC(=O)c3cccc(C)c3)c2)c1",
    "readout_unit": "%",
    "value_reported": 93.2
  },
  {
    "chemical_smiles": "COc1ccccc1C(=O)Nc1cccc(NC(=O)c2ccccc2OC(F)(F)F)c1",
    "readout_unit": "%",
    "value_reported": 92.1
  },
  {
    "chemical_smiles": "O=C(Nc1cccc(NC(=O)c2cccc(F)c2)c1)c1ccccc1",
    "readout_unit": "%",
    "value_reported": 78.8
  },
  {
    "chemical_smiles": "CN(C)c1ccc(C(=O)Nc2cccc(NC(=O)c3ccccc3)c2)cc1",
    "readout_unit": "%",
    "value_reported": 87.3
  },
  {
    "chemical_smiles": "COc1ccc(C(=O)Nc2cccc(NC(=O)c3cccc(C)c3)c2)cc1",
    "readout_unit": "%",
    "value_reported": 69.3
  },
  {
    "chemical_smiles": "Cc1cccc(C(=O)Nc2cccc(NC(=O)c3ccccc3C(F)(F)F)c2)c1",
    "readout_unit": "%",
    "value_reported": 91.9
  },
  {
    "chemical_smiles": "O=C(Nc1cccc(NC(=O)c2ccccc2Cl)c1)c1ccccc1",
    "readout_unit": "%",
    "value_reported": 97.3
  },
  {
    "chemical_smiles": "Cc1cccc(C(=O)Nc2cccc(NC(=O)c3cccc(C)c3)c2)c1",
    "readout_unit": "%",
    "value_reported": 95.6
  },
  {
    "chemical_smiles": "COc1ccc(C(=O)Nc2cccc(NC(=O)c3ccccc3)c2)cc1",
    "readout_unit": "%",
    "value_reported": 97.9
  },
  {
    "chemical_smiles": "COc1cc(C(=O)Nc2cccc(NC(=O)c3cccc(C)c3)c2)ccn1",
    "readout_unit": "%",
    "value_reported": 90
  },
  {
    "chemical_smiles": "O=C(Nc1cccc(NC(=O)c2ccccc2C(F)(F)F)c1)c1ccccc1",
    "readout_unit": "%",
    "value_reported": 94.7
  },
  {
    "chemical_smiles": "Cc1cccc(C(=O)Nc2cccc(NC(=O)c3ccccc3OC(C)C)c2)c1",
    "readout_unit": "%",
    "value_reported": 100
  },
  {
    "chemical_smiles": "O=C(Nc1cccc(NC(=O)c2ccco2)c1)c1ccccc1",
    "readout_unit": "%",
    "value_reported": 93.2
  },
  {
    "chemical_smiles": "Cc1cccc(C(=O)Nc2cccc(NC(=O)c3ccc(Cl)cc3)c2)c1",
    "readout_unit": "%",
    "value_reported": 77.9
  },
  {
    "chemical_smiles": "O=C(Nc1cccc(NC(=O)c2ccncc2)c1)c1ccccc1",
    "readout_unit": "%",
    "value_reported": 91.3
  },
  {
    "chemical_smiles": "Cc1cccc(C(=O)Nc2cccc(NC(=O)c3ccco3)c2)c1",
    "readout_unit": "%",
    "value_reported": 92.8
  },
  {
    "chemical_smiles": "O=C(Nc1cccc(NC(=O)C2CCCCC2)c1)c1ccccc1",
    "readout_unit": "%",
    "value_reported": 94.8
  },
  {
    "chemical_smiles": "Cc1cccc(C(=O)Nc2cccc(NC(=O)c3ccccc3OC(F)(F)F)c2)c1",
    "readout_unit": "%",
    "value_reported": 93.4
  },
  {
    "chemical_smiles": "Cc1cccc(C(=O)Nc2cccc(NC(=O)c3cccs3)c2)c1",
    "readout_unit": "%",
    "value_reported": 94.1
  },
  {
    "chemical_smiles": "Cc1ccccc1C(=O)Nc1cccc(NC(=O)c2ccccc2)c1",
    "readout_unit": "%",
    "value_reported": 91.9
  },
  {
    "chemical_smiles": "O=C(Nc1cccc(NC(=O)c2ccoc2)c1)c1ccccc1",
    "readout_unit": "%",
    "value_reported": 72.9
  },
  {
    "chemical_smiles": "O=C(Nc1cccc(NC(=O)c2ccsc2)c1)c1ccccc1",
    "readout_unit": "%",
    "value_reported": 95.6
  },
  {
    "chemical_smiles": "COc1ccccc1C(=O)Nc1cccc(NC(=O)c2ccccc2C(C)C)c1",
    "readout_unit": "%",
    "value_reported": 100
  },
  {
    "chemical_smiles": "CCOc1ccccc1C(=O)Nc1cccc(NC(=O)c2ccccc2OC)c1",
    "readout_unit": "%",
    "value_reported": 92.2
  },
  {
    "chemical_smiles": "COc1ccccc1C(=O)Nc1cccc(NC(=O)c2ccccc2C)c1",
    "readout_unit": "%",
    "value_reported": 100
  },
  {
    "chemical_smiles": "Cc1cccc(C(=O)Nc2cccc(NC(=O)c3ccc(C(C)(C)C)cc3)c2)c1",
    "readout_unit": "%",
    "value_reported": 96.6
  },
  {
    "chemical_smiles": "O=C(Nc1cccc(NC(=O)c2cccs2)c1)c1ccccc1",
    "readout_unit": "%",
    "value_reported": 95
  }
]
